All values here come from ChEMBL document CHEMBL4177739.

assay: Intrinsic clearance in mouse liver microsomes assessed as per gram protein at 0.1 umol/L in presence of NADPH by LC/MS/MS method; assay type: ADME, microsome; design: unit not given here; conditions: 0.1 µM
Binary classification by intrinsic clearance in liver microsomes, with 10 as an inclusive lower bound for class 1; all other cases are class 0.

[
  {
    "chem.smiles": "C[C@@H](O)[C@H](NC(=O)c1ccc(C#CC#CC2CC2)cc1F)C(=O)NO",
    "category": "class 1"
  },
  {
    "chem.smiles": "CC(C)(N)[C@H](NC(=O)c1ccc(C#CC#CC2CC2)cc1F)C(=O)NO",
    "category": "class 0"
  },
  {
    "chem.smiles": "C[C@@H](O)[C@H](NC(=O)c1ccc(C#CC#CC2CC2)c(F)c1)C(=O)NO",
    "category": "class 1"
  },
  {
    "chem.smiles": "C[C@@H](O)[C@H](NC(=O)c1ccc(C#CC#CC2CC2)cc1O)C(=O)NO",
    "category": "class 0"
  },
  {
    "chem.smiles": "CC(C)(N)[C@H](NC(=O)c1ccc(C#CC#CC2CC2)cc1O)C(=O)NO",
    "category": "class 1"
  },
  {
    "chem.smiles": "C[C@@H](O)[C@H](NC(=O)c1ccc(C#CC#CC2CC2)cc1)C(=O)NO",
    "category": "class 1"
  },
  {
    "chem.smiles": "CC(C)(N)[C@H](NC(=O)c1ccc(C#CC#CC2CC2)c(F)c1)C(=O)NO",
    "category": "class 1"
  }
]
